Test system: P. falciparum stage V gametocytes
Design: BacTiter-Glo ATP luminescence viability of purified stage V gametocytes in 384-well plates, per cent inhibition versus DMSO
Details: 48 h, 5 µM; inhibitor
The whole screen tested about 13,000 compounds, of which about 3,200 (25%) showed an effect of 50% or more. The list shows a part of the results.
Recorded measurements of % Inhibition, one per entry

COMPOUND	VALUE UNIT	% Inhibition
CCCCCc1ccc(NC(=O)Nc2ccc(Cn3ncc(N4CCCNCC4)c(Cl)c3=O)cc2)cc1	%	-21.48
Cc1sc2cc(Cl)cc(Cl)c2c1S(=O)(=O)Nc1ccc2nccc(N3CCNCC3)c2c1	%	54.96
O=S(=O)(Nc1ccc2nccc(N3CCNCC3)c2c1)c1ccc2c(Cl)cccc2c1	%	15.64
Fc1ccc(-c2cc(NCCCn3ccnc3)nc(-c3cccnc3)n2)cc1	%	9.204
Cc1sc2ccc(Cl)cc2c1S(=O)(=O)Nc1ccc2nccc(N3CC(C)NC(C)C3)c2c1 (centres unmarked)	%	20.27
CC(C)=CCc1c(-c2ccc(O)cc2O)oc2c3c(cc(O)c2c1=O)OC(C)(C)C=C3	%	26.1
CCCC(C)Nc1nc(C)cc(N[C@@H](CC(C)C)C(=O)NCCc2ccccc2)n1 (some centres unmarked)	%	-46.8
O=C(/C=C/c1ccccc1Cl)Nc1ccc(Br)c(OCCN2CCC(O)(c3ccccc3)CC2)c1	%	2.038
